- system: human recombinant FAAH (Homo sapiens)
- Sequence (O00519 whole entry): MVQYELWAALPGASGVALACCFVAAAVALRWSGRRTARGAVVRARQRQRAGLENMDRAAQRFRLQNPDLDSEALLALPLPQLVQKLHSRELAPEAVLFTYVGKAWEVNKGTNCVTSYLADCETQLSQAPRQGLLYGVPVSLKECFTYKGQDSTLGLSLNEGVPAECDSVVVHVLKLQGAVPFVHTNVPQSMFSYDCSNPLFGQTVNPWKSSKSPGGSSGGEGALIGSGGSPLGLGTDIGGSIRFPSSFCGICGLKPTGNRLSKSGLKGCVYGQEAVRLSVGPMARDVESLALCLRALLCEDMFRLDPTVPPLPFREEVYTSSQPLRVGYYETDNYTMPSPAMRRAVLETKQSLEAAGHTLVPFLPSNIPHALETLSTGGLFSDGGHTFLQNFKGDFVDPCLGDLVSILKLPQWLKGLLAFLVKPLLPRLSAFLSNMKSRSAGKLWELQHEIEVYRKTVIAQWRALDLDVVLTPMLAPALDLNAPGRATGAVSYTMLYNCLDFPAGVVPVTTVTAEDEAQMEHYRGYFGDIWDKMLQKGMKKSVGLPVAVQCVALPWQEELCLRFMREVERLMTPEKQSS
- assay: FAAH inhibition enzymatic assay, fluorescent substrate Arachidonoyl-AMC, 30 minute incubation
- experimental-parameters: T = 30 min (30 minute incubation); geometric mean of 2-4 determinations unless otherwise indicated
pIC50: −log10 of the molar value.
observed-property: pIC50

* O=C(O[C@H](CO)C(F)(F)F)N1CCC2(CC1)CCN(S(=O)(=O)c1ccccc1)C2 [Example 105] | 5.01
* Cc1ccc(C2COC3(CCN(C(=O)O[C@H](CO)C(F)(F)F)CC3)C2)cn1 (mixture of isomers) [Example 123] | 4.61

###

# key: entry, value: IC50
- system: human recombinant Monoacylglycerol Lipase (Homo sapiens, UniProt Q99685)
- Sequence (Q99685 1-303): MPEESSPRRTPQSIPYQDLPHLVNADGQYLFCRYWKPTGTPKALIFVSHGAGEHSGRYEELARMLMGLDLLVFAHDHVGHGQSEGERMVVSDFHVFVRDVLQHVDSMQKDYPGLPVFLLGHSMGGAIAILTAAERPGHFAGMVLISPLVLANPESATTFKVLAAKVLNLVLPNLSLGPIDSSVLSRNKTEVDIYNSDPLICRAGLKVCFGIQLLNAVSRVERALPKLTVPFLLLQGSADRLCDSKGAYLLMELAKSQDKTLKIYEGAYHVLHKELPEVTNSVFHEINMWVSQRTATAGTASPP
- assay: MAGL inhibition enzymatic assay, fluorogenic substrate 7-HCA, IC50 at T=0 min or after 30 minute incubation (T=30 min)
- Format: biochemical
- experimental-parameters: T = 0 min (substrate added immediately); geometric mean of 2-4 determinations unless otherwise indicated; read-out: MAGL (T = 0 min) IC50
- Description: An equal volume of 7-HCA in assay buffer with 10% DMSO was added either immediately (T=0 min) or after a 30 minute incubation (T=30 min) to initiate the reaction. […] After these dilutions, the final concentration of the test compound ranged from 3 μM to 0.03 nM. […] IC50 values were generated based on a four parameter fit model using ABASE software from IDBS.
observed-property: IC50 (µM)

* O=C(O[C@H](CO)C(F)(F)F)N1CCN(Cc2ccc(F)cc2)CC1 | 0.794
* CN(C(=O)c1ccccc1)C1COC2(CCN(C(=O)O[C@H](CO)C(F)(F)F)CC2)C1 (single isomer, unassigned) [Example 99] | 0.107
* O=C(O[C@H](CO)C(F)(F)F)N1C[C@@H]2CN(S(=O)(=O)c3ccc(F)c(F)c3)C[C@@H]2C1 | 0.368
* O=C(O[C@H](CO)C(F)(F)F)N1C[C@@H]2CN(S(=O)(=O)c3ccc(F)cc3)C[C@@H]2C1 | 0.494
* O=C(O[C@H](CO)C(F)(F)F)N1CCC2(CC1)CCN(C(=O)C1CCC(F)(F)CC1)C2 | 0.163
* O=C(O[C@H](CO)C(F)(F)F)N1CCC2(CC1)CN(Cc1ccc(F)cc1)CCO2 | 0.304
* CC(c1ccc(F)cc1)N1CCOC2(CCN(C(=O)O[C@H](CO)C(F)(F)F)CC2)C1 (single isomer, unassigned) [Example 44] | 0.179
* Cc1cnc(OC2CCN(C(=O)O[C@H](CO)C(F)(F)F)CC2)c(C)c1 | 0.053
* CN(CC1(O)CCN(C(=O)O[C@H](CO)C(F)(F)F)CC1)S(=O)(=O)c1ccccc1 | 1.9
* CCC1CN(S(=O)(=O)c2ccc(F)cc2)CC2(CCN(C(=O)O[C@H](CO)C(F)(F)F)CC2)O1 (stereo partly drawn) | 0.524
* CC1N(S(=O)(=O)c2ccc(F)cc2)CCOC12CCN(C(=O)O[C@H](CO)C(F)(F)F)CC2 (single isomer, unassigned) [Example 70] | 0.655
* COP(=O)(OC)OC[C@@H](OC(=O)N1CCC2(CC1)CN(S(=O)(=O)c1ccc(F)cc1)CCO2)C(F)(F)F | 0.097
* CN(C1COC2(CCN(C(=O)O[C@H](CO)C(F)(F)F)CC2)C1)S(=O)(=O)c1ccc(F)cc1 (single isomer, unassigned) [Example 110] | 0.07
